test: in vitro; conditions: human, % of cell viability compared to control, 3. measurement, HepG2, 0.1 µM
Could you mark each record Satisfied if its viability at 0.1 µM falls strictly under 90%, and Not satisfied if it equals or exceeds it?

INSERT INTO assay_data (molecule, label_value) VALUES
  ('COc1ccc2cc3[n+](cc2c1OCc1ccc(Cl)cc1)CCc1cc2c(cc1-3)OCO2 [16i, 9-O-(4-chlorbenzyl)berberine chloride]', 'Not satisfied'),
  ('COc1ccc2cc3[n+](cc2c1OCc1ccc(C)cc1)CCc1cc2c(cc1-3)OCO2 [16d, 9-O-(4-methylbenzyl)berberine chloride]', 'Satisfied'),
  ('COc1ccc2cc3[n+](cc2c1OCc1ccccc1C)CCc1cc2c(cc1-3)OCO2 [16b, 9-O-(2-methylbenzyl)berberine chloride]', 'Not satisfied');

Prompt: Please let me know if COc1ccc2cc3[n+](cc2c1OCc1cccc(C)c1)CCc1cc2c(cc1-3)OCO2 [16c, 9-O-(3-methylbenzyl)berberine chloride] shows viability at 0.1 µM below 90%.
Completion: Not satisfied
